- Test system: KRAS-mutant PDC tumor spheroid with HUVEC/MSC, viability;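 further: spheroids exposed to agents for seven days before reading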
- METHOD NOTES: Anticancer human tumor 327498-153-R-J2-PDC patient-derived uterine carcinosarcoma cell line growth inhibition [KRAS2]
- APPLIED CONDITIONS: second compound 3.16 µM; first compound 0.001 µM; stronger effect = lower value
# label = Fulfilled if viability, T/C < 0.3% else Not fulfilled

Please review the entries below; each comes with its answer.
>  <COMPOUND>
CC(=O)Nc1cccc(-n2c(=O)n(C3CC3)c(=O)c3c(Nc4ccc(I)cc4F)n(C)c(=O)c(C)c32)c1 + CNCc1ccccc1-c1csc(C(C)Nc2nc(C)nc3cc(OC)c(OC)cc23)c1

>  <DISCRETE LABEL>
Not fulfilled

$$$$
>  <COMPOUND>
CC(=O)Nc1cccc(-n2c(=O)n(C3CC3)c(=O)c3c(Nc4ccc(I)cc4F)n(C)c(=O)c(C)c32)c1 + CC1OCC2(CCN(c3cnc(Sc4ccnc(N)c4Cl)c(N)n3)CC2)C1N

>  <DISCRETE LABEL>
Not fulfilled

$$$$

Identify whether the compound CC(C)n1nc(-c2ccc3oc(N)nc3c2)c2c(N)ncnc21 + CNCc1ccccc1-c1csc(C(C)Nc2nc(C)nc3cc(OC)c(OC)cc23)c1 records viability, T/C below 0.3%.
Fulfilled

Please give the result for CC(C)n1nc(-c2ccc3oc(N)nc3c2)c2c(N)ncnc21 + C=CC(=O)N1CCN(c2nc(OCC3CCCN3C)nc3c2CCN(c2cccc4cccc(C)c24)C3)CC1CC#N too.
Fulfilled
